ASSAY OVERVIEW: method code SF-AS, from DOI: 10.1016/s0021-9673(00)82338-9
DETAILS: pH 9.0
EXPERIMENTAL ENDPOINT: logD

(1) O=[N+]([O-])c1cncn1CCN1CCOCC1
(2) Cn1c([N+](=O)[O-])cnc1COC(N)=O
(3) Cn1c([N+](=O)[O-])cnc1C1CC1
(4) Cc1ncc([N+](=O)[O-])n1CC(=O)N1C=CN(C(=O)Cn2c([N+](=O)[O-])cnc2C)C=C1
(5) Cc1ncc([N+](=O)[O-])n1CC(O)Cn1c([N+](=O)[O-])cnc1C
Request: Sequence the entries by logD, beginning with the highest number. Please write the labels in the order that was asked for.
Result: 3, 5, 1, 2, 4
(3: 1, 5: 0.31, 1: 0.07, 2: -0.38, 4: -0.7)

(I) Cn1c([N+](=O)[O-])cnc1C=O
(II) O=[N+]([O-])c1cnc(C=Cc2ccc3c(c2)OCO3)n1CCO
Request: Could you please tell me which of these two has the higher logD: I or II ? Answer by quoting the chosen item's label.
Result: II
